System: L1210 leukemia ip in BDF1 mice, survival T/C
Experiment: NCI In Vivo Anticancer Drug Screen. Data for tumor model L1210 Leukemia (intraperitoneal) in B6D2F1 (BDF1) mice
Settings: endpoint: mean survival time; dose: 100.0 mg/kg/injection; schedule: Q01DX001 (ip); vehicle: saline; higher = longer survival
Inconclusive results and toxic doses are left out.
Value Type: T/C

Oc1ccc(Br)cc1/C=N/c1nc(-c2ccccc2)cs1.Oc1ccc(Br)cc1/C=N/c1nc(-c2ccccc2)cs1.[Zn] ... 86 % of control

// field: T/C; key: O=c1ccn(C2CCCO2)c(=O)[nH]1 (configuration not stated) ; value = 109 % of control

// field: T/C; key: Nc1ccc(N=Nc2c(Br)cc(S(N)(=O)=O)cc2Br)c(N)n1 ; value = 102 % of control

// field: T/C; key: O=C(Nc1ccc([N+](=O)[O-])cc1)N1CCCCC1 ; value = 95 % of control

// field: T/C; key: c1ccc2c(C3CSC3)nncc2c1 ; value = 97 % of control

// field: T/C; key: COc1ccc(C(CCCC(=O)O)c2ccc(OC)cc2)cc1 ; value = 112 % of control

// field: T/C; key: O=C(O)C1OC(n2cc(I)c(=O)[nH]c2=O)CC1O (configuration not stated) ; value = 107 % of control

// field: T/C; key: Cc1ccc(S(=O)(=O)CCCCCl)cc1 ; value = 101 % of control

// field: T/C; key: NNC(=O)C1CC2C(=O)NNC(=O)C2C1C(=O)O (configuration not stated) ; value = 102 % of control

// field: T/C; key: O=C(O)CCl ; value = 104 % of control

// field: T/C; key: COc1ccc(-n2cnnn2)cc1 ; value = 103 % of control

// field: T/C; key: N#CC(c1ccccc1)C(O)(c1ccccc1)c1ccccc1 (configuration not stated) ; value = 98 % of control

// field: T/C; key: Cn1cc(N)c(=O)[nH]c1=O ; value = 101 % of control

// field: T/C; key: O=C(O)C1CCC(=O)C2CCCCC12 (configuration not stated) ; value = 97 % of control

// field: T/C; key: O=C(Nc1ccccc1)c1cc(N2CCOCC2)ccn1 ; value = 97 % of control

// field: T/C; key: Clc1ccccc1C(c1ccc(I)cc1)C(Cl)Cl (configuration not stated) ; value = 101 % of control

// field: T/C; key: CC(C)=CCC(C)c1ccccn1 (configuration not stated) ; value = 100 % of control

// field: T/C; key: COc1ccc(C(O)CNC(=O)c2ccccc2)cc1 (configuration not stated) ; value = 96 % of control

----------
System: L1210 leukemia ip in BDF1 mice, survival T/C
Assay: NCI In Vivo Anticancer Drug Screen. Data for tumor model L1210 Leukemia (intraperitoneal) in B6D2F1 (BDF1) mice
Conditions: endpoint: mean survival time; dose: 50.0 mg/kg/injection; schedule: Q04DX003 (ip); vehicle: saline; higher = longer survival
Toxic doses and inconclusive results are not listed.
Recorded measurements of T/C, one per entry

CC(C)(C)OC(=O)CC1(C)CCC2C1C(=O)OC2(C)C (stereo not drawn) ... 98 % of control
CC1(C)N=C(N)N=C(N)N1c1cc(Cl)ccc1Cl ... 103 % of control

Continue with the next compound.
// field: T/C; key: O=C(N[C@@H](c1ccccc1)[C@H](N=Cc1ccccc1)c1ccccc1)c1ccccc1 ; value = 95 % of control

----------
Recorded measurements of T/C, one per entry
Tested on: L1210 leukemia ip in BDF1 mice, survival T/C
Assay: NCI In Vivo Anticancer Drug Screen. Data for tumor model L1210 Leukemia (intraperitoneal) in B6D2F1 (BDF1) mice
Details: endpoint: mean survival time; dose: 200.0 mg/kg/injection; schedule: Q01DX001 (ip); vehicle: carboxymethylcellulose (CMC); higher = longer survival
Toxic doses and inconclusive results are not listed.

Reference set, count: 3
c1ccc2c3c([nH]c2c1)CCC3 ... 98 % of control
O=C(c1ccccc1)c1cc(CN(CCCl)CCCl)c(O)cc1O ... 117 % of control
O=[N+]([O-])/C=C/c1ccc(Cl)cc1Cl ... 89 % of control

// field: T/C; key: COc1cc([N+](=O)[O-])c2nc(Cl)ccc2c1 ; value = 88 % of control

// field: T/C; key: Cc1ccc(CN(C)C)c(C(O)(c2ccccc2)c2ccccc2)c1 ; value = 100 % of control

// field: T/C; key: COc1cc(CCO)cc(OC)c1 ; value = 86 % of control

// field: T/C; key: CC1=CC(=O)CC(c2ccccc2)C1 (configuration not stated) ; value = 103 % of control

----------
Test system: L1210 leukemia ip in BDF1 mice, survival T/C
Experiment: NCI In Vivo Anticancer Drug Screen. Data for tumor model L1210 Leukemia (intraperitoneal) in B6D2F1 (BDF1) mice
Settings: endpoint: mean survival time; dose: 150.0 mg/kg/injection; schedule: Q01DX001 (ip); vehicle: carboxymethylcellulose (CMC); higher = longer survival
Protocol: The antitumor activity of compounds was measured in mice bearing transplantable tumors. Survival or tumor size were measured and the results are expressed as the measurement made in the treated group (T) divided by the measurement made in the vehicle treated control group (C). The tumor model used in this assay is L1210 Leukemia (intraperitoneal) in B6D2F1 (BDF1) mice
Toxic doses and inconclusive results are not listed.
Recorded measurements of T/C, one per entry

Reference set, count: 5
CCNC(=O)Nc1ncn[nH]1 ... 98 % of control
c1ccc2c(c1)cnn1cnnc21 ... 97 % of control
NNC(=S)Nc1cccc2ccccc12 ... 93 % of control
CC(C)/C=C/C1(C(C)C)C(=O)NC(=O)NC1=O ... 94 % of control
O=C(c1ccccc1)C(Nc1ccccn1)c1ccccc1 (stereo unspecified) ... 94 % of control

Continue with the next compound.
// field: T/C; key: CN(C)CCS(=O)(=O)CCc1ccccc1 ; value = 98 % of control

----------
Tested on: L1210 leukemia ip in BDF1 mice, survival T/C
Assay: NCI In Vivo Anticancer Drug Screen. Data for tumor model L1210 Leukemia (intraperitoneal) in B6D2F1 (BDF1) mice
Conditions: endpoint: mean survival time; dose: 200.0 mg/kg/injection; schedule: Q01DX001 (ip); vehicle: carboxymethylcellulose (CMC); higher = longer survival
Toxic doses and inconclusive results are not listed.
Value Type: T/C

Reference set, count: 3
CSc1ccnc2c1ncn2C1OC(CO)C(O)C1O (stereo not drawn) ... 104 % of control
Cc1cc(Sc2ccccc2)c2c(C)ccc(C(C)C)cc1-2 ... 97 % of control
O=P(O)(O)c1ccccc1 ... 98 % of control

// field: T/C; key: COc1ccc(OCC(=O)N2CCCCCC2)cc1 ; value = 109 % of control

// field: T/C; key: O=C(Nc1cccc2ccccc12)c1ccccc1O ; value = 96 % of control

// field: T/C; key: OC(OCC(COC(O)C(Br)Br)(COC(O)C(Br)Br)COC(O)C(Br)Br)C(Br)Br (stereo not drawn) ; value = 92 % of control

// field: T/C; key: Cc1ccc(C(=O)OCC(C)C)s1 ; value = 101 % of control

// field: T/C; key: Nc1cccc2c1[nH]c(=O)c1ccccc12 ; value = 97 % of control

// field: T/C; key: CCCOC(=O)c1ccc(OC(=O)NC)cc1 ; value = 102 % of control

// field: T/C; key: CC(=O)CO ; value = 101 % of control

// field: T/C; key: Cc1cc(N(CCCl)CCCl)ccc1C=Nc1ccc(S(N)(=O)=O)cc1 ; value = 101 % of control

// field: T/C; key: O=C(Nc1ccc(Nc2ccccc2)cc1)Nc1ccccc1C(F)(F)F ; value = 92 % of control

// field: T/C; key: COC(OC)/C(C)=N/NC(N)=O ; value = 116 % of control

----------
Tested on: L1210 leukemia ip in BDF1 mice, survival T/C
Experiment: NCI In Vivo Anticancer Drug Screen. Data for tumor model L1210 Leukemia (intraperitoneal) in B6D2F1 (BDF1) mice
Settings: endpoint: mean survival time; dose: 300.0 mg/kg/injection; schedule: Q01DX009 (ip); vehicle: saline; higher = longer survival
Toxic doses and inconclusive results are not listed.
Value Type: T/C

Reference set, count: 3
O=c1[nH]c2ccc(F)cc2c(=O)o1 ... 94 % of control
Oc1ccc2ccccc2c1CN1CCCCC1 ... 89 % of control
CCCCCCCC/C=C\CCCCCCCC(=O)NCCCOCCOCCOCC ... 87 % of control

Continue with the next compound.
Entry COc1ccc(C2(SCC(N)C(=O)O)c3ccccc3-c3ccccc32)cc1 (centres undefined) , L1210 leukemia ip in BDF1 mice, survival T/C data, T/C value: 98 % of control
